Target Desc: human mAChR M4 (Homo sapiens, UniProt P08173)
Construct: expressed in transfected cells
Sequence (P08173 1-479): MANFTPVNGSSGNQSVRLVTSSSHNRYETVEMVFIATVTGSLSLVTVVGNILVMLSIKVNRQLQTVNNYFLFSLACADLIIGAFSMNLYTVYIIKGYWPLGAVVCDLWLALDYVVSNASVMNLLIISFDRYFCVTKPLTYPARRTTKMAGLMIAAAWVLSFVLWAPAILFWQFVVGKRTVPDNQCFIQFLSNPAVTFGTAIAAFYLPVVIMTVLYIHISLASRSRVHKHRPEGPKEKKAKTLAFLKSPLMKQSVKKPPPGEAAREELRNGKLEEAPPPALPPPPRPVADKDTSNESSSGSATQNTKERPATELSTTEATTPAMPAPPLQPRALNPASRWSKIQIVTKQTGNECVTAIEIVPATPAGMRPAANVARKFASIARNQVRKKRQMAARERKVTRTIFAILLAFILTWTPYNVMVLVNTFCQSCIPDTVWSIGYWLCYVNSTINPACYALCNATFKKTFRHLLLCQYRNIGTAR
Protocol: mAChR M4 cell-based functional assay (calcium mobilization, CHO-K1 hM4-Gqi5 cells)
Test Parameters: CHO-K1, % ACh maximum at 30 μM; human M4
Readout Name: Emax at 30 µM (%)
Write the value in % as a bare number.

{"Compound": "Cc1c(C#N)nnc(N2CCc3ncc(-c4ccc(N5CCN(C6CC6)CC5)nc4)cc3C2)c1C", "Target Desc": "human mAChR M4 (Homo sapiens, UniProt P08173)", "Display Unit": "%", "Obs Value": 41}

# input for lookup
Specify reported Emax at 30 µM for the compound shown: Cc1cc(C(=O)N2CC3CC3C2)nnc1N1CCc2ncc(C(F)(F)F)cc2C1 (stereo not shown)
101

Origin of measurements: patent US20250230155A1
